Where do these numbers come from? They come from PubChem BioAssay AID1963968.

# Tested on: 945468-187-T-J3-PDC spheroids with HUVEC/MSC, viability
# protocol description: Anticancer human tumor 945468-187-T-J3-PDC patient-derived rectal carcinoma cell line growth inhibition [PI3K]
# measurement setup: second compound 1 µM; first compound 1 µM; hits give low values
# Excerpt: Combinatorial screen of targeted agents with the PI3K inhibitors inavolisib, alpelisib, duvelisib, and copanlisib in multi-cell type tumor spheroids A high-throughput screen of multi-cell type tumor spheroids was designed to identify active combinations of targeted small molecules and PI3K pathway inhibitors. […] Compounds. […] If the clinical Cmax for an agent had not been determined, the highest concentration tested was 10 microM. […]
Threshold check on viability, T/C: strictly below 40% is class 1; on or above 40% is class 0.

# molecule, assayed target, label class
records = [
    ("CC1(C)CCC(Nc2ncc(C(F)(F)F)c(-c3c[nH]c4c(P(C)(C)=O)c(C#N)ccc34)n2)CN1 (stereo not given) + COc1c(OCCCN2CCOCC2)ccc2c3n(c(=NC(=O)c4cnc(N)nc4)nc12)CCN3", "945468-187-T-J3-PDC spheroids with HUVEC/MSC, viability", "class 1"),
    ("C[C@@H](NC(=O)c1ncnc(N)c1Cl)c1ncc(C(=O)Nc2cc(C(F)(F)F)c(Cl)cn2)s1 + COc1c(OCCCN2CCOCC2)ccc2c3n(c(=NC(=O)c4cnc(N)nc4)nc12)CCN3", "945468-187-T-J3-PDC spheroids with HUVEC/MSC, viability", "class 1"),
    ("C#Cc1c(F)ccc2cc(O)cc(-c3ncc4c(N5CC6CCC(C5)N6)nc(OCC56CCCN5CC(F)C6)nc4c3F)c12 (stereo not given) + Cc1nc(NC(=O)N2CCCC2C(N)=O)sc1-c1ccnc(C(C)(C)C(F)(F)F)c1", "945468-187-T-J3-PDC spheroids with HUVEC/MSC, viability", "class 0"),
]

Consider CCN1CCN(Cc2ccc(Nc3ncc(F)c(-c4cc(F)c5nc(C)n(C(C)C)c5c4)n3)nc2)CC1 + Cc1nc(NC(=O)N2CCCC2C(N)=O)sc1-c1ccnc(C(C)(C)C(F)(F)F)c1 . Does its viability, T/C lie strictly below 40%?
class 1

Identify whether the molecule CNC(=O)c1ccc(N2C(=S)N(c3ccc(C#N)c(C(F)(F)F)c3)C(=O)C2(C)C)cc1F + Cc1nc(NC(=O)N2CCCC2C(N)=O)sc1-c1ccnc(C(C)(C)C(F)(F)F)c1 records viability, T/C below 40%.
class 0

====

# System: 945468-187-T-J3-PDC spheroids with HUVEC/MSC, viability
# protocol description: Anticancer human tumor 945468-187-T-J3-PDC cell line growth inhibition [PI3K];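 further: spheroids exposed to agents for 7 days before viability read; 100% = DMSO vehicle control viability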
# measurement setup: second compound 0.316 µM; first compound 0.0316 µM; hits give low values
reported metric: viability, T/C (%)
Give just the numeric value; % need not be written.

# molecule, unit descriptor, viability, T/C
data = [
    ("CNC(=O)c1ccc(N2C(=S)N(c3ccc(C#N)c(C(F)(F)F)c3)C(=O)C2(C)C)cc1F + CC(Nc1ccc2c(c1)OCCn1cc(N3C(=O)OCC3C(F)F)nc1-2)C(N)=O", "%", 124),
]

Give the measured viability, T/C of CC1(C)CCC(CN2CCN(c3ccc(C(=O)NS(=O)(=O)c4ccc(NCC5CCOCC5)c([N+](=O)[O-])c4)c(Oc4cnc5[nH]ccc5c4)c3)CC2)=C(c2ccc(Cl)cc2)C1 + CC(Nc1ncnc2nc[nH]c12)c1cc2cccc(Cl)c2c(=O)n1-c1ccccc1 .
111
